Origin of the recorded values: patent US20220339143A1

assay: Single dose PK in healthy subjects (Cohorts 1, 2, S1 and S2), plasma; assay type: in vivo, human; details: human, plasma, intravenous, 14 mg; 6 hr; read-out: Plasma concentration, Maximum
Text: […]

molecule smiles | concentration at 6 h [ng/mL]
COC(=O)N1CCC[C@H](NS(C)(=O)=O)[C@@H]1CO[C@H]1CC[C@@H](c2ccccc2)CC1 | 35.2

----------
assay: Single dose PK in healthy subjects (Cohorts 1, 2, S1 and S2), plasma; type: in vivo, human; details: human, plasma, intravenous, 14 mg; 4 hr; read-out: Plasma concentration, Median

compound | concentration at 4 h, ng/mL
COC(=O)N1CCC[C@H](NS(C)(=O)=O)[C@@H]1CO[C@H]1CC[C@@H](c2ccccc2)CC1 [Compound A] | 37
